Numbers sourced from paper PMC12015462.

Examples of compounds with documented activity at 100 µM follow.
# Test system: Mycobacterium marinum
# assay info: Infection assay: intracellular M. marinum growth (luminescence) in D. discoideum
# Assay type: cell-based
# conditions used: 72 h, conc 100 uM, vehicle control set at 1, read-out: mean normalized residual growth, Mm in infection
# unit: % | format: bare number

Consider the reported activity at 100 µM for these compounds:
compound	activity at 100 µM [%]
Oc1ccc(/C=C/c2cc(O)c3c(c2)O[C@@H](c2ccc(O)cc2)[C@@H]3c2cc(O)c3c(c2)O[C@@H](c2ccc(O)cc2O)[C@H]3c2cc(O)cc(O)c2)cc1 [Compound 4, (−)-Gnetoline A]	12.2
Oc1ccc(/C=C/c2cc(O)c3c(c2)O[C@@H](c2ccc(O)cc2)[C@@H]3c2cc(O)c3c(c2)O[C@H](c2ccc(O)cc2)[C@H]3c2cc(O)cc(O)c2)cc1 [Compound 6, (−)-Gnetin E]	46.3

API: the following record is the query input.
# input Requested read-out: activity at 100 µM. Entry: Oc1ccc(/C=C/c2cc(O)c3c(c2)O[C@H](c2ccc(O)cc2)[C@H]3c2cc(O)c3c(c2)O[C@H](c2ccc(O)cc2)[C@H]3c2cc(O)c3c(c2)O[C@H](c2ccc(O)cc2)[C@H]3c2cc(O)cc(O)c2)cc1
# output 61

###

# Tested on: Mycobacterium marinum
# assay info: Infection assay: intracellular M. marinum growth (luminescence) in D. discoideum
# Type: cell-based
# conditions used: 72 h, conc 3.703703704 uM, vehicle control set at 1, read-out: mean normalized residual growth, Mm in infection
experimental readout: activity at 3.7037 µM (%)
# unit: % | format: bare number

Consider the reported activity at 3.7037 µM for these molecules:
molecule	target or test system	experimental readout	value observed
Oc1ccc(/C=C/c2cc(O)c3c(c2)O[C@H](c2ccc(O)cc2O)[C@@H]3c2cc(O)cc(O)c2)cc1 (relative stereo) [Compound 2, (+)-Gnetupendin C]	Mycobacterium marinum	activity at 3.7037 µM	154
Oc1ccc(/C=C/c2cc(O)c3c(c2)O[C@@H](c2ccc(O)cc2)[C@@H]3c2cc(O)c3c(c2)O[C@H](c2ccc(O)cc2O)[C@H]3c2cc(O)cc(O)c2)cc1 [Compound 5, (−)-Latifolol]	Mycobacterium marinum	activity at 3.7037 µM	192

API: the following record is the query input.
# input Requested read-out: activity at 3.7037 µM. Entry: Oc1ccc(/C=C/c2cc(O)c3c(c2)O[C@@H](c2ccc(O)cc2O)[C@@H]3c2cc(O)cc(O)c2)cc1 (relative stereo) [Compound 1, (+)-Gnetin D]
# output 153

###

# System: Mycobacterium marinum
# assay info: Infection assay: intracellular M. marinum growth (luminescence) in D. discoideum
# Format: cell-based
# conditions used: 72 h, conc 3.703703704 uM, vehicle control set at 1, read-out: mean normalized residual growth, Mm in infection
Examples of compounds with documented activity at 3.7037 µM follow.
# unit: % | format: bare number

compound	activity at 3.7037 µM, %
Oc1ccc(/C=C/c2cc(O)c3c(c2)O[C@H](c2ccc(O)cc2)[C@H]3c2cc(O)c3c(c2)O[C@H](c2ccc(O)cc2)[C@H]3c2cc(O)c3c(c2)O[C@H](c2ccc(O)cc2)[C@H]3c2cc(O)cc(O)c2)cc1 [Compound 8, Gnemonol B]	127

API: the following record is the query input.
# input Fill in the recorded activity at 3.7037 µM for this compound, with Mycobacterium marinum as test system: Oc1ccc(/C=C/c2cc(O)c3c(c2)O[C@H](c2ccc(O)cc2)[C@H]3c2cc(O)c3c(c2)O[C@H](c2ccc(O)cc2)[C@H]3c2cc(O)c3c(c2)O[C@H](c2ccc(O)cc2O)[C@H]3c2cc(O)cc(O)c2)cc1 [Compound 7, Macrostachyol A]
# output 163
